Values were extracted from ChEMBL document CHEMBL1201862.

# System: U-251
# experiment-notes: NCI tumour cell line growth inhibition, 48 h
Activity calls are given as the source filed them. Rule as the data show it: active = GI50 up to about 1.1 µM and inactive = higher.
Please state which outcome applies, choosing from label 1 (active), label 0 (inactive)

### Prompt Check the results log: what was the call for CC(=O)CC(=O)Nc1ccccc1C(F)(F)F ?
### Response label 0

### Prompt Please share the test call associated with [O-][S+]1c2ccccc2SCSc2ccccc21 .
### Response label 0

### Prompt Assay result, entry ClC(Cl)=C1C(=C(Cl)Cl)C(Cl)(Cl)C1(Cl)Cl — outcome?
### Response label 0

### Prompt Recorded test call requested for CCOc1ccc2c(ccc(/C=C/c3cc(C)c4cccnc4c3O)[n+]2C)c1
### Response label 1

### Prompt Given OC(CC(c1ccccc1)c1ccc(Cl)cc1)c1ccc(Cl)cc1 (configuration not stated) , state the outcome it received in this test.
### Response label 0

### Prompt Lab log entry: O=C1CCCCN1 — outcome as called in the assay?
### Response label 0

### Prompt Which outcome was entered for the compound CCCS(=O)(=O)Nc1ccc(Nc2c3ccccc3nc3ccccc23)c(OC)c1 in this test?
### Response label 1

### Prompt Hello, I am checking results. What call was entered for Cc1cn(C(CO)OC(CO)CN(O)C2C3CC4CC(C3)CC2C4)c(=O)[nH]c1=O (configuration not stated) ?
### Response label 0

### Prompt Please indicate how the test categorized CCc1ccc(Cc2ccc(CC)c(NC(=O)C(=O)C3NC(=S)NC3=O)c2CC)c(CC)c1NC(=O)C(=O)C1NC(=S)NC1=O (configuration not stated) .
### Response label 0

### Prompt Test call for this compound, please: O=c1oc2c(Cl)cc(Cl)cc2cc1-c1cn2c(n1)sc1ccccc12
### Response label 0

### Prompt Check the results log: what was the call for O=CNc1ccccc1OCCOc1ccccc1NC=O ?
### Response label 0

### Prompt What was the test verdict on OCCN(CCO)c1ccc2c(-c3ccccc3)cc(N(CCO)CCO)nc2n1 ?
### Response label 0

### Prompt Per the assay record, what outcome was assigned to C=CC(O)(CBr)CCC(Br)C(C)(C)Cl (configuration not stated) ?
### Response label 0

### Prompt How did this test come out for COC1CN(C)/C(=N\c2cccc3ccccc23)S1 (configuration not stated) ?
### Response label 0

### Prompt Any idea what this test logged for COc1cc(OC)cc(OCc2ccc3nc(-c4ccccc4)c(Cl)nc3c2)c1 ?
### Response label 0

### Prompt Call for entry CC(C)(C)C1=NN=C2c3ccccc3C(=O)C21 (configuration not stated) :
### Response label 0

### Prompt What did the test return for Cn1c(=O)c2c(n(C)c1=O)n1c(=O)c3ccccc3nc1n2C ?
### Response label 0

### Prompt Check the results log: what was the call for CC(C)C1=CC23CCC4C(C)(C(=O)O)CCCC4(C)C2CC1C1C(=O)N(c2ccccc2)C(=O)C13 (configuration not stated) ?
### Response label 0

### Prompt Test call, this compound: C/C(=N\NC(N)=S)c1nc2cccnc2[nH]1
### Response label 0

### Prompt Answer briefly: the call reported for CS(=O)(=O)OCCCCOS(C)(=O)=O in this assay.
### Response label 0

### Prompt Check the results log: what was the call for NCCC(=O)N[C@@H](Cc1cc(O)c(O)c(SCC(NC(=O)CC[C@H](N)C(=O)O)C(=O)NCC(=O)O)c1)C(=O)O (some centres not stated) ?
### Response label 0

### Prompt For this compound, state the assay outcome: CCCCCCCCCCCC1=C(O)C(=O)C(CC2=C(O)C(=O)C(CCCCCCCCCCC)=C(O)C2=O)=C(O)C1=O
### Response label 0

---

I'd be grateful if you could share measured GI50 for these entries.
# System: RXF 631
# experiment-notes: NCI tumour cell line growth inhibition, 48 h
Activity calls are given as the source filed them. Cut-off read from the data, not from the text of the source: active = GI50 up to about 1.1 µM and inactive = higher.

### Prompt Please give measured GI50 of the following entry: CSc1nc(NC2OCC(OC(C)=O)C(OC(C)=O)C2OC(C)=O)c(/N=C\C=N\c2c(NC3OCC(OC(C)=O)C(OC(C)=O)C3OC(C)=O)nc(SC)[nH]c2=O)c(=O)[nH]1 (centres undefined)
### Response 74 µM (inactive)

### Prompt Give GI50 for the following compound: CCc1c(C#N)c(=O)[nH]c(=O)n1CCN1CCN(C(=O)NCCCCCCNC(=O)N2CCN(CCn3c(CC)c(C#N)c(=O)[nH]c3=O)CC2)CC1
### Response > 100 µM (inactive)

### Prompt Give a short answer stating reported GI50 for COC(=O)C1=CNC(C(=O)OC)=NN1 .
### Response > 100 µM (inactive)

### Prompt Determine from records and report GI50 for Cc1ccc(C2=[N+]([O-])c3ccccc3C2=O)cc1
### Response 22.2 µM (inactive)

### Prompt Note down GI50 recorded for Cc1ccccc1C(C#N)C(=O)C(=O)Nc1nc([N+](=O)[O-])cs1 (centres undefined)
### Response > 100 µM (inactive)

### Prompt Report GI50, nothing else, for this compound: CC1=C(C(=O)Nc2cc(=O)n(C)c(=O)n2C)C(c2ccc([N+](=O)[O-])cc2)C(C(=O)Nc2cc(=O)n(C)c(=O)n2C)=C(C)N1
### Response > 100 µM (inactive)

### Prompt Tell me GI50 reported for N#CC(C#N)=C(C(C#N)C#N)C(C#N)C#N
### Response > 100 µM (inactive)

### Prompt For the compound O=C(O)CCC(NC(=O)c1ccc(Nc2nc3ccccc3nc2-c2cccs2)cc1)C(=O)O (centres undefined) , give its reported GI50.
### Response > 100 µM (inactive)

### Prompt Let me know recorded GI50 for O=C(c1nc2ccc(Cl)cc2nc1O)C(O)c1ccc2c(c1)OCO2 (centres undefined) , thanks.
### Response > 100 µM (inactive)

### Prompt Input Cc1c(C(=O)C/C(=N/NC(=O)C[N+](C)(C)C)C(=O)Nc2ccc(Cl)cc2)[n+]([O-])c2ccccc2[n+]1[O-] , output reported GI50.
### Response > 100 µM (inactive)

### Prompt Give the measured GI50 for Cc1cc(C)cc(-n2c3nc(=O)n(C)c(=O)c-3nc3ccccc32)c1
### Response 22.5 µM (inactive)

### Prompt Please report the measured GI50 for COC1=CC(=O)C(Br)=CC1=O
### Response 31.6 µM (inactive)

### Prompt Give recorded GI50. CCOC(=O)C(C(C)=O)C1CC=CC1 (centres undefined)
### Response > 100 µM (inactive)

### Prompt For the compound CCn1cc(C(=O)O)c(=O)c2cc(F)c(N3CCNCC3)nc21 , give its measured GI50 value.
### Response > 100 µM (inactive)

---

# Tested on: M19-MEL
# experiment-notes: NCI tumour cell line growth inhibition, 48 h
Calls of active or inactive are those of the source. Rule as the data show it: active = GI50 up to about 1.1 µM and inactive = higher.
Allowed answers: active, inactive

### Prompt Write down the call the test reported for this compound. Item: COc1ccc(C[C@H](N)C(=O)N2C[C@H](CO)C[C@H](n3cnc4c(N(C)C)ncnc43)C2)cc1
### Response inactive

### Prompt What is the recorded call for this compound in the test? O=C1N(c2ccc(Cl)cc2)C(=O)C2(SC=NN2Cc2ccccc2)N1c1ccc(Cl)cc1 (stereo not drawn)
### Response inactive

### Prompt Per the assay record, what outcome was assigned to O=NN1C(c2ccccc2)CNC(=O)CC1c1ccccc1 (stereo not drawn) ?
### Response inactive

### Prompt What call does the record list for Cc1ccccc1C(C#N)C(=O)C(=O)Nc1nc([N+](=O)[O-])cs1 (stereo not drawn) ?
### Response inactive

### Prompt For FC(F)(F)c1ccccc1/C=N/C12CC3CC(CC(C3)C1)C2 , which call appears in the assay record?
### Response inactive

### Prompt Can you look up the reported call for C#CCN(N=O)C(=O)ON1C(=O)CCC1=O for me?
### Response inactive

### Prompt Could you check what this test reported for Cc1cc(S(=O)(=O)O)c(NC(=O)C(=O)C2C=CCS2(=O)=O)cc1Cl (stereo not drawn) ?
### Response inactive

### Prompt // outcome(item) with item = CSc1nc2c(nc(N)n2C2OC(CO)C(O)C(O)C2O)c(=O)[nH]1 (stereo not drawn)
### Response inactive

### Prompt Fill in: this test's call for CCOC(=O)C1C2CCC(C2)C1(CCl)C(=O)OCC (stereo not drawn) is ___
### Response inactive

### Prompt What outcome does the record of this test show for COC(=O)NN=C1C(C)(C)C(=NNC(=O)OC)C1(C)C ?
### Response inactive

### Prompt I would be grateful if you could indicate the recorded call for Cc1cc(Cl)ccc1NC(=O)C(=O)C(C(=O)c1ccc2ccccc2c1)C1OC(=O)c2ccccc21 (stereo not drawn) .
### Response inactive

### Prompt Hi, do you know how O=C1C2=C(c3ccccc31)C(c1ccccc1)N1C(=O)CSC1=N2 (stereo not drawn) came out in this test?
### Response inactive

### Prompt Hello, I am checking results. What call was entered for O=S1(=O)c2cc(S(=O)(=O)n3ccnc3)ccc2NC2=NCCCN21 ?
### Response inactive

### Prompt Tell me the recorded outcome of this test for O=c1[nH]c(=O)n(C2CC(O)C(CO)O2)cc1C#Cc1cc(C(F)(F)F)cc(C(F)(F)F)c1 (stereo not drawn) .
### Response inactive

### Prompt What did the test return for O=S(=O)(c1ccccc1)N1N=C2c3ccccc3CCC[C@H]2C1c1ccccc1 (stereo partly drawn) ?
### Response inactive

### Prompt // param item: O=c1[nH]c(=O)n(C2OC(COP(=O)(O)OP(=O)(O)OC3OC(CO)C(O)C(O)C3O)C(O)C2O)cc1F (stereo not drawn) ; yields the recorded call
### Response active

### Prompt Status in this test for ClC(Cl)=C1C(=C(Cl)Cl)C(Cl)(Cl)C1(Cl)Cl ?
### Response inactive

### Prompt Answer briefly: the call reported for O=C(O)CCC(NC(=O)c1ccc(Nc2nc3ccccc3nc2-c2cccs2)cc1)C(=O)O (stereo not drawn) in this assay.
### Response inactive

### Prompt What is the recorded call for this compound in the test? COc1ccccc1-c1cc(=O)c2cc(C)c(C)c(C(=O)O)c2o1
### Response inactive

### Prompt Short answer needed: outcome of this test for O=C1CSC(C(/N=N/c2ccc(Cl)cc2)c2nc3ccccc3[nH]2)=N1 (stereo not drawn) ?
### Response inactive

### Prompt What was the test verdict on O=C(NCc1ccccc1)c1cc2cc(O)c(O)cc2cn1 ?
### Response inactive

### Prompt Kindly provide the recorded test outcome for the following compound: COc1cc2c(c(OC(C)=O)c1OC(C)=O)-c1ccc(SC)c(=O)cc1C(NC(C)=O)CC2 (stereo not drawn)
### Response inactive

### Prompt Can you look up the reported call for C/C(=N\NC(=S)N(C)C)c1ncc[nH]1 for me?
### Response inactive

### Prompt In this assay, the call recorded for O=C1C(=O)N(c2nccs2)C(=O)C(=O)C1c1nc2ccccc2s1 was what?
### Response inactive

### Prompt Please share the test call associated with O=C1c2ccccc2S[C@@H](O)[C@@H]2CCCN12 .
### Response inactive

### Prompt So what was the verdict on COc1ccc(N2C(=O)c3c(c4[nH]c5ccc(OC)cc5c4c4ccc(C(C)(C)C)cc34)C2=O)cc1 in this test?
### Response inactive

### Prompt Please let me know the test result on file for CCc1ccccc1NC(=O)CCc1nnc(S)[nH]1 .
### Response inactive

### Prompt Per the assay record, what outcome was assigned to CC(C)(C)C(=O)Nc1cccc2oc(-c3ccccc3)cc12 ?
### Response inactive
